Hey, just so you know, these numbers are from patent US9340505B2.

System: YopE-B1a secretion
EXPERIMENTAL_DETAILS: microbe, parasite or virus in culture
Type: cell-based, Y. pestis
STATED_CONDITIONS: Yersinia pestis, read-out: Mean Inhibition (%) (3rd round compound 3 analogs)
Field: inhibition at 60 µM. Provide a value for each of the compounds that follow.
Numbers only here, please. The scale is %.

# lookup: YopE-B1a secretion inhibition at 60 µM, key = FC(F)(F)c1cc(Nc2nc3cc(C4=NCCN4)ccc3o2)ccc1Cl
69.8

# lookup: YopE-B1a secretion inhibition at 60 µM, key = FC(F)(F)c1cc(Nc2nc3cc(C4=NCCCN4)ccc3o2)ccc1Cl
49

# lookup: YopE-B1a secretion inhibition at 60 µM, key = FC(F)(F)c1cc(Nc2nc3ccc(C4=NCCN4)cc3[nH]2)ccc1Cl
0

# lookup: YopE-B1a secretion inhibition at 60 µM, key = FC(F)(F)c1cc(Nc2nc3ccc(C4=NCCN4)cc3o2)ccc1Cl
103
